Test: A cytotoxicity screen of small molecule inhibitors of the PhoP region in Salmonella typhi identified in the primary screen. [Related pubchem assays: 1850, 1864, 1985 ]
Format: functional
Active and inactive are the calls of the source. No rule for the calls is given here.
Experimental Readout: EC50

| Smiles Notation | Experimental Readout | Result |
| --- | --- | --- |
| O=C(N/N=C/c1ccc(N2CCCC2)c([N+](=O)[O-])c1)c1cccnc1 | EC50 | > 50 µM (active) |
| Cc1cccc(NS(=O)(=O)c2ccc3c(c2)OCCO3)c1 | EC50 | > 50 µM (active) |
| COc1ccc(N2CCN(C(=O)c3cc4c(s3)-c3ccccc3S(=O)(=O)C4)CC2)cc1 | EC50 | > 50 µM (active) |
| S=C(Nc1ccccc1Cl)N(Cc1ccccc1)Cc1ccccn1 | EC50 | > 50 µM (active) |
| c1ccc2sc(N3CN(CCN4CCOCC4)CN(c4nc5ccccc5s4)C3)nc2c1 | EC50 | > 50 µM (active) |
